Assay: amyloid nucleation score (Sup35N fusion, yeast selection) (log enrichment); library NNK1; higher = more nucleation; inactive = no reads after selection;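 also: zero at mode of non-aggregating sequences after 7 days selection at 30°C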
reported metric: amyloid nucleation score
Respond using a number only.

residue codes: FDKGVSIRPSAWRDPRVWPS
amyloid nucleation score: 0.417
--
residue codes: LKAELSNLKAHVLW
amyloid nucleation score: 0.777
--
residue codes: NKYQLHMILKGFQGSAYWSV
amyloid nucleation score: -0.453

Query: So what does the record say about amyloid nucleation score for HAFSSCDYSHYVFGMRPFDL ?
Result: 1.51

Query: Consider the sequence LFWASVSSWYDGEGVGKPDV and give its measured amyloid nucleation score.
Result: 0.134

Query: Value lookup for amyloid nucleation score; key = SIYSFDHYGANRFLFYGGLS
Result: 0.358

Query: Requested field: amyloid nucleation score. Item: DRSDDGHNESLWAVLMRHKV
Result: 0.315

Query: What amyloid nucleation score value was documented for this sequence, PFTRVGLDMYLDDSVKKGWD ?
Result: -0.528

###

Test: amyloid nucleation score (Sup35N fusion, yeast selection) (log enrichment); library NNK3; higher = more nucleation; inactive = no reads after selection
reported metric: amyloid nucleation score

Example entries and their recorded answers appear below.
substance: SNSFLFYFEYSGVKLRRLGL
result: inactive

substance: DWTWMMS
result: inactive

substance: SFGMCTMYFYLNVCMAKGAR
result: inactive

substance: SISTFYMLNMLKNMHLDGFG
result: inactive

substance: ACGGCHYKRAYMQLGLMRLK
result: inactive

Then this substance:
Query: Give the measured amyloid nucleation score of NVGNRCYWWVLMARLLSIFR .
Result: inactive

###

Assay: amyloid nucleation score (Sup35N fusion, yeast selection) (log enrichment); library NNK2; higher = more nucleation; inactive = no reads after selection
# key: entry, value: amyloid nucleation score
Answer with the value's number alone.

substance: WRLVHCIHTIGYCMPVRLRG
amyloid nucleation score: 3.25

substance: IVSEIFSG
amyloid nucleation score: -0.369

substance: SCSSLYT
amyloid nucleation score: 1.11

substance: MTVYLLIVLKFCFRRMSPEA
amyloid nucleation score: -0.255

substance: RRFMYIFYLDYFFKPLLRLN
amyloid nucleation score: -0.369

substance: GRHQVIGMWCSRLFPLVRRS
amyloid nucleation score: 0.375

substance: VFLAPRMF
amyloid nucleation score: -0.864

substance: SAYGVVSSWMR
amyloid nucleation score: -0.266

Query: What does the record list as amyloid nucleation score for VNGSTMFQVMFWLRPVHVIE ?
Result: -0.119

Query: Could you share which amyloid nucleation score value was measured for RTPTRILQAMLFYSRDHYSI ?
Result: 0.218

Query: What value of amyloid nucleation score has been reported for the following substance? GVWSITNRFQEIVGNCLCVR
Result: 0.576

Query: Any idea what its amyloid nucleation score is? The substance is NIVRYAMELCDIN
Result: 4.08

Query: What does the record list as amyloid nucleation score for SSYRINPRKPLR ?
Result: 0.028

Query: Reported amyloid nucleation score, substance VGGLFYLLLMG : ____
Result: -0.865

Query: What value of measured amyloid nucleation score is listed for PCIGSQFFYSFGGLIK ?
Result: -0.736

Query: State the recorded amyloid nucleation score for this entry: GYIGGVSWNISVVVCSS
Result: 2.71

###

Test: amyloid nucleation score (Sup35N fusion, yeast selection) (log enrichment); library NNK3; higher = more nucleation; inactive = no reads after selection
reported metric: amyloid nucleation score

substance: GISYNSV
amyloid nucleation score: inactive
//
substance: VNCLLSRWCGRHA
amyloid nucleation score: inactive
//
substance: CFKSIITMNFYINWYFVSSP
amyloid nucleation score: inactive
//
substance: MMPNELFDPVRKDRSFVRWV
amyloid nucleation score: inactive
//
substance: VYNALNNSAVLQL
amyloid nucleation score: inactive
//
substance: SSNFVFNLPSTWWSYYMTWV
amyloid nucleation score: -0.216

Query: Find the recorded amyloid nucleation score belonging to YCIRVVVWYNRHYGYSLS and report it.
Result: inactive

Query: Would you kindly share the measured amyloid nucleation score for YIKCKFF ?
Result: inactive

Query: Look up amyloid nucleation score for this substance: SLSVSYDVLWRIFSGNNGNW
Result: 1.25
